Hey, just so you know, these numbers are from patent US10487093B2.

Test system: Enterobacter cloacae NCTC 13406
assay name: MIC, broth microdilution (CLSI) versus planktonic bacteria
Format: cell-based
setup conditions: NCTC13406; Enterobacter cloacae NCTC 13406; 16-20 h; mode of three independent experiments; read-out: MIC, Ecl NCTC 13406
Below, each of the molecules is paired with its reported MIC value.
readout: MIC

molecule	val
O=C1COc2ccc(N3C(=O)O[C@H]4C[C@@H](NCCCn5c(=O)ccc6ncc(OC(F)F)cc65)CC[C@@H]43)nc2N1 [Compound 93]	1 to 10 µg/mL
COc1ccc2ccc(=O)n(CCCN[C@H]3CC[C@H]4[C@H](C3)OC(=O)N4c3ccc4c(n3)NC(=O)CO4)c2n1 [Compound 83]	< 1 µg/mL
N#Cc1ccc2ccc(=O)n(CCN[C@H]3CC[C@H]4[C@H](C3)OC(=O)N4c3ccc4c(n3)NC(=O)CO4)c2c1 [Compound 56]	< 1 µg/mL

###

System: Enterobacter cloacae NCTC 13406
assay name: MIC, broth microdilution (CLSI) versus planktonic bacteria
Type: cell-based
setup conditions: NCTC13406; Enterobacter cloacae NCTC 13406; 16-20 h; mode of three independent experiments; read-out: MIC, Ecl NCTC 13406
readout: MIC

structure smiles	tested on	readout	val
COc1cnc2ccc(=O)n(CCN(C)[C@H]3CC[C@H]4[C@@H](C3)OC(=O)N4c3ccc4c(n3)NC(=O)CO4)c2c1	Enterobacter cloacae NCTC 13406	MIC	1 to 10 µg/mL
COc1ccc2ccc(=O)n(CCN(CCO)[C@H]3CC[C@H]4[C@@H](C3)OC(=O)N4c3ccc4c(n3)NC(=O)CO4)c2n1	Enterobacter cloacae NCTC 13406	MIC	1 to 10 µg/mL
N#Cc1cccc(-c2cccc(CN[C@H]3CC[C@H]4[C@@H](C3)OC(=O)N4c3ccc4c(n3)NC(=O)CO4)c2O)n1	Enterobacter cloacae NCTC 13406	MIC	< 1 µg/mL
N#Cc1ccc2ccc(=O)n(CCN(CCN)[C@H]3CC[C@H]4[C@@H](C3)OC(=O)N4c3ccc4c(n3)NC(=O)CO4)c2c1	Enterobacter cloacae NCTC 13406	MIC	> 100 µg/mL
N#Cc1ccc2ncc(=O)n(CCN[C@@H]3CC[C@@H]4[C@@H](C3)OC(=O)N4c3ccc4c(n3)NC(=O)CO4)c2c1	Enterobacter cloacae NCTC 13406	MIC	< 1 µg/mL
N#Cc1ccc2ccc(=O)n(CCN(CCN)[C@@H]3CC[C@@H]4[C@@H](C3)OC(=O)N4c3ccc4c(n3)NC(=O)CO4)c2c1	Enterobacter cloacae NCTC 13406	MIC	> 100 µg/mL

###

Test system: Haemophilus influenzae ATCC 49247
assay name: MIC, broth microdilution (CLSI) versus planktonic bacteria
Format: cell-based
setup conditions: ATCC49247; Haemophilus influenzae ATCC 49247; 16-20 h; mode of three independent experiments; read-out: MIC, Hi ATCC 49247
Below, each of the molecules is paired with its reported MIC value.

molecule	MIC
COc1ccc2ccc(=O)n(CCN[C@@H]3CC[C@@H]4[C@H](C3)OC(=O)N4c3ccc4c(n3)NC(=O)CO4)c2n1 [Compound 25]	< 1 µg/mL
O=C1COc2ccc(N3C(=O)O[C@H]4C[C@@H](NCCn5c(=O)ccc6ccc(OCCN7CCOCC7)cc65)CC[C@@H]43)nc2N1 [Compound 97]	1 to 10 µg/mL
Cn1ccc(-c2ccc3ccc(=O)n(CCN[C@H]4CC[C@H]5[C@H](C4)OC(=O)N5c4ccc5c(n4)NC(=O)CO5)c3c2)n1 [Compound 104]	< 1 µg/mL
COc1ccc2ccc(=O)n(CCCN[C@H]3CC[C@H]4[C@H](C3)OC(=O)N4c3ccc4c(n3)NC(=O)CO4)c2n1 [Compound 83]	< 1 µg/mL
COc1cnc2ccc(=O)n(CCN[C@H]3CC[C@H]4[C@H](C3)OC(=O)N4c3ccc4c(n3)NC(=O)CO4)c2c1 [Compound 42]	< 1 µg/mL
COc1ccc2ccc(=O)n(CCCN[C@@H]3CC[C@@H]4[C@@H](C3)OC(=O)N4c3ccc4c(n3)NC(=O)CO4)c2n1 [Compound 76]	< 1 µg/mL
O=C1COc2ccc(N3C(=O)O[C@H]4C[C@@H](NCCn5c(=O)cnc6ccc(F)cc65)CC[C@@H]43)nc2N1 [Compound 84]	< 1 µg/mL
COc1cccc(-c2cccc(CN[C@H]3CC[C@H]4[C@H](C3)OC(=O)N4c3ccc4c(n3)NC(=O)CO4)c2)n1 [Compound 73]	1 to 10 µg/mL
N#Cc1ccc2ccc(=O)n(CCCN[C@@H]3CC[C@@H]4[C@@H](C3)OC(=O)N4c3ccc4c(n3)NC(=O)CO4)c2c1 [Compound 74]	< 1 µg/mL
N#Cc1cnc2ccc(=O)n(CCCN[C@H]3CC[C@H]4[C@H](C3)OC(=O)N4c3ccc4c(n3)NC(=O)CO4)c2c1 [Compound 82]	< 1 µg/mL
N#Cc1cccc(-c2cccc(CN[C@H]3CC[C@H]4[C@H](C3)OC(=O)N4c3ccc4c(n3)NC(=O)CO4)c2)n1 [Compound 57]	< 1 µg/mL
COc1cnc2ccc(=O)n(CCN[C@H]3CC[C@H]4[C@H](C3)OC(=O)N4c3ccc4c(n3)NC(=O)CS4)c2c1 [Compound 81]	< 1 µg/mL
N#Cc1ccc2ccc(=O)n(CCN(CCN)[C@H]3CC[C@H]4[C@@H](C3)OC(=O)N4c3ccc4c(n3)NC(=O)CO4)c2c1 [Compound 58]	> 100 µg/mL

###

Tested on: strains of Peptostreptococcus anaerobius
assay name: MIC against anaerobes, agar dilution (CLSI), clinical isolates
Assay type: cell-based
setup conditions: Peptostreptococcus anaerobius strain 4
Below, each of the molecules is paired with its reported MIC value.
readout: MIC

molecule	val
Cc1ncc([N+](=O)[O-])n1CCO [MTZ, metronidazole, reference compound]	< 1 µg/mL
Cc1ccc2ncc(=O)n(CCN[C@H]3CC[C@H]4[C@@H](C3)OC(=O)N4c3ccc4c(n3)NC(=O)CO4)c2c1	4 to 16 µg/mL
COc1ccc2ncc(=O)n(CCN[C@@H]3CC[C@@H]4[C@@H](C3)OC(=O)N4c3ccc4c(n3)NC(=O)CO4)c2c1	< 1 µg/mL
CN[C@H](CC(C)C)C(=O)N[C@H]1C(=O)N[C@@H](CC(N)=O)C(=O)N[C@H]2C(=O)N[C@H]3C(=O)N[C@H](C(=O)N[C@H](C(=O)O)c4cc(O)cc(O)c4-c4cc3ccc4O)[C@H](O)c3ccc(c(Cl)c3)Oc3cc2cc(c3O[C@@H]2O[C@H](CO)[C@@H](O)[C@H](O)[C@H]2O[C@H]2C[C@](C)(N)[C@H](O)[C@H](C)O2)Oc2ccc(cc2Cl)[C@H]1O [VAN, vancomycin, reference compound]	> 64 µg/mL

###

Below, each of the molecules is paired with its reported MIC value.
Tested on: Haemophilus influenzae ATCC 49247
assay name: MIC, broth microdilution (CLSI) versus planktonic bacteria
Type: cell-based
setup conditions: ATCC49247; Haemophilus influenzae ATCC 49247; 16-20 h; mode of three independent experiments; read-out: MIC, Hi ATCC 49247

molecule	MIC
CN(CCn1c(=O)ccc2ccc(OCCN)cc21)[C@@H]1CC[C@@H]2[C@@H](C1)OC(=O)N2c1ccc2c(n1)NC(=O)CO2 [Compound 54]	1 to 10 µg/mL
O=C1COc2ccc(N3C(=O)O[C@@H]4C[C@@H](NCCn5c(=O)ccc6ncc(F)cc65)CC[C@@H]43)nc2N1 [Compound 28]	1 to 10 µg/mL
COc1ccc2ccc(=O)n(CCN[C@H]3CC[C@H]4[C@H](C3)OC(=O)N4c3ccc4c(n3)NC(=O)CS4)c2n1 [Compound 61]	< 1 µg/mL
O=C1COc2ccc(N3C(=O)O[C@H]4C[C@@H](NCCn5c(=O)ccc6nccnc65)CC[C@@H]43)nc2N1 [Compound 100]	< 1 µg/mL
COc1ccc2ccc(=O)n(CCN[C@H]3CC[C@H]4[C@H](C3)OC(=O)N4c3ccc4c(n3)NC(=O)C(C)(C)O4)c2n1 [Compound 48]	1 to 10 µg/mL
O=C1COc2ccc(N3C(=O)O[C@H]4C[C@@H](NCCCn5c(=O)ccc6ncc(OC(F)F)cc65)CC[C@@H]43)nc2N1 [Compound 93]	< 1 µg/mL
CCCOc1ccc2ccc(=O)n(CCN[C@H]3CC[C@H]4[C@H](C3)OC(=O)N4c3ccc4c(n3)NC(=O)CO4)c2c1 [Compound 91]	< 1 µg/mL
COc1cccc(-c2cccc(CN[C@@H]3CC[C@@H]4[C@@H](C3)OC(=O)N4c3ccc4c(n3)NC(=O)CO4)c2)n1 [Compound 80]	< 1 µg/mL
COc1ccc2ccc(=O)n(CCN[C@H]3CC[C@H]4[C@H](C3)OC(=O)N4c3ccc4c(n3)NC(=O)CO4)c2n1 [Compound 29]	< 1 µg/mL
N#Cc1ccc2ccc(=O)n(CCN(CCN)[C@@H]3CC[C@@H]4[C@@H](C3)OC(=O)N4c3ccc4c(n3)NC(=O)CO4)c2c1 [Compound 19]	10 to 100 µg/mL
COc1ccc2ccc(=O)n(CCN[C@H]3CC[C@H]4[C@@H](C3)OC(=O)N4c3ccc4c(n3)NC(=O)CO4)c2n1 [Compound 4]	1 to 10 µg/mL
COc1ccc2c3conc3c(=O)n(CCN[C@H]3CC[C@H]4[C@@H](C3)OC(=O)N4c3ccc4c(n3)NC(=O)CO4)c2c1 [Compound 11]	1 to 10 µg/mL
Cc1ccc2ncc(=O)n(CCN[C@H]3CC[C@H]4[C@@H](C3)OC(=O)N4c3ccc4c(n3)NC(=O)CO4)c2c1 [Compound 27]	1 to 10 µg/mL
COc1ccc2ccc(=O)n(CCN[C@@H]3CC[C@@H]4[C@@H](C3)OC(=O)N4c3cc4c(nn3)OCCO4)c2n1 [Compound 49]	10 to 100 µg/mL
COc1ccc2ccc(=O)n(CCN(CCO)[C@H]3CC[C@H]4[C@@H](C3)OC(=O)N4c3ccc4c(n3)NC(=O)CO4)c2n1 [Compound 7]	1 to 10 µg/mL
COc1ccc2ncc(=O)n(CCN[C@H]3CC[C@H]4[C@@H](C3)OC(=O)N4c3ccc4c(n3)NC(=O)CO4)c2c1 [Compound 24]	< 1 µg/mL
COc1cnc2ccc(=O)n(CCN[C@@H]3CC[C@@H]4[C@@H](C3)OC(=O)N4c3ccc4c(n3)NC(=O)CO4)c2c1 [Compound 69]	< 1 µg/mL
COc1ccc2ncc(=O)n(CCN[C@H]3CC[C@H]4[C@@H](C3)OC(=O)N4c3ccc4c(n3)NC(=O)CO4)c2n1 [Compound 35]	< 1 µg/mL
O=C1COc2ccc(N3C(=O)O[C@@H]4C[C@H](NCCCn5c(=O)cnc6cc(F)c(F)cc65)CC[C@H]43)nc2N1 [Compound 88]	< 1 µg/mL
O=C1COc2ccc(N3C(=O)O[C@@H]4C[C@H](NCCn5c(=O)cnc6cc(F)c(F)cc65)CC[C@H]43)nc2N1 [Compound 70]	< 1 µg/mL
NCCCOc1ccc2ccc(=O)n(CCN[C@@H]3CC[C@@H]4[C@@H](C3)OC(=O)N4c3ccc4c(n3)NC(=O)CO4)c2c1 [Compound 3]	10 to 100 µg/mL
COc1ccc2ccc(=O)n(CCN[C@@H]3CC[C@@H]4[C@@H](C3)OC(=O)N4c3ccc4c(n3)NC(=O)CO4)c2n1 [Compound 1]	< 1 µg/mL
O=C1COc2ccc(N3C(=O)O[C@H]4C[C@@H](NCCCn5c(=O)cnc6ccc(F)cc65)CC[C@@H]43)nc2N1 [Compound 92]	< 1 µg/mL
CN(C)CCOc1ccc2ccc(=O)n(CCN[C@@H]3CC[C@@H]4[C@@H](C3)OC(=O)N4c3ccc4c(n3)NC(=O)CO4)c2c1 [Compound 32]	10 to 100 µg/mL
COc1cnnc(-c2cccc(CN[C@@H]3CC[C@@H]4[C@@H](C3)OC(=O)N4c3ccc4c(n3)NC(=O)CO4)c2O)c1 [Compound 72]	< 1 µg/mL
COc1ncc2ccc(=O)n(CCN[C@H]3CC[C@H]4[C@@H](C3)OC(=O)N4c3ccc4c(n3)NC(=O)CO4)c2n1 [Compound 17]	10 to 100 µg/mL
